Where do these numbers come from? They come from patent EP0118571A1.

Measured pIC50 values are reported for all entries that follow.
biological target: rat lens AR (RLAR) (Rattus norvegicus); construct: BLAR and RLAR were purified according to the method of Inagaki et al; from tissue; host or cells: rat (Wistar) lens; assay: Aldose reductase (AR) activity assay, rat lens AR (NADPH oxidation, DL-glyceraldehyde substrate); assay type: biochemical; details: read-out: IC50 (concentration of inhibitor needed to elicit 50 % inhibition) RLAR
pIC50: −log10 of the molar value.

# structure as smiles, pIC50
rows = [
    ("C[C@@H]1O[C@@H](Oc2c(-c3ccc(O)c(O)c3)oc3cc(O)cc(O)c3c2=O)[C@H](O)[C@H](O)[C@H]1O", 6.31),
    ("COc1c(OC)c(OC)c2c(=O)cc(-c3ccc(O)c(O)c3)oc2c1OC", 7.44),
]
